B1: PhoQ; a variant is named by its letters at X, in order, P23837 (parent)
chain: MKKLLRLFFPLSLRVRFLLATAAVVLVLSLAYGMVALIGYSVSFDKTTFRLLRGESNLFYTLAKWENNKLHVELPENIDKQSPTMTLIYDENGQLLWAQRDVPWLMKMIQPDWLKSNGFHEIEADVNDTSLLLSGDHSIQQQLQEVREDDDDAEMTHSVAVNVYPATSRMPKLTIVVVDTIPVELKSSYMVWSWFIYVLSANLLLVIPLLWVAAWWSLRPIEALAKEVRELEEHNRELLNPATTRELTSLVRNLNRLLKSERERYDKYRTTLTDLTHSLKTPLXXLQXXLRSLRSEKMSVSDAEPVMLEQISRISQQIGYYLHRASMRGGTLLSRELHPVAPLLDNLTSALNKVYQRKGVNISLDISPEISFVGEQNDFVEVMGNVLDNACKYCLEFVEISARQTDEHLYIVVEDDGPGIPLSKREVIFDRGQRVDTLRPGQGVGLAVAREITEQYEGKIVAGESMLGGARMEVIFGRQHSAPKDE

- Variants of: B1
- TEST_DETAILS: enrichment ratio after two sorts for PhoP signalling (ratio (wild type AVST 3.29)); higher = more functional
- MEASUREMENT_PARAMETERS: with PhoP (E. coli)
Over roughly 140,000 sequences, “enrichment ratio after two sorts for PhoP signalling” has its median near 0; the highest 2% begin near 11. The sample holds the highest values, similar sequences and a random draw of the others, so the mix is not that of the screen.
enrichment ratio values, listed per item

Known enrichment ratio results, listed for orientation:
In [3]: df
Out[3]:
   mutation_name  measured_parameter  result
0           QLGK    enrichment ratio    3.11
1           THTQ    enrichment ratio    1.45
2           QNHE    enrichment ratio  ≤ 0.25
3           NPLL    enrichment ratio  ≤ 0.25

Let us move to another entry and its enrichment ratio.
Query block: Need enrichment ratio, item HGYA
Result block: ≤ 0.25
